Data provenance is ChEMBL document CHEMBL3507680.

Please respond with reported cytotoxicity at 70.5 h for every item in the list.
assay: Human HepG2 cell viability assay in 384 well format; assay type: toxicity, cell-based; design: dose 125 nL, time 70.5 hour; concentration not given beside the values; settings: HepG2 cells, read-out: Inhibition
Value expressed in %; do not type the unit.

Provide measured cytotoxicity at 70.5 h value, entry: CC(C)CC(=O)N1C[C@@H]2CCN(c3ncccn3)C[C@@H]2C1
42.7

Provide measured cytotoxicity at 70.5 h value, entry: Cc1cc(F)cc(S(=O)(=O)Nc2ccn(CCCC#N)n2)c1
-9.51

Provide measured cytotoxicity at 70.5 h value, entry: COc1ccc(-c2noc(CCC(=O)N3CCOCC3(C)C)n2)cc1
-3.78

Provide measured cytotoxicity at 70.5 h value, entry: CCN1CCC(CC(=O)N(C)C(C)c2cncs2)CC1 (configuration not stated)
-1.72

Provide measured cytotoxicity at 70.5 h value, entry: CSCC(C)(O)CNC(=O)Nc1cc(C)cc(C)c1 (configuration not stated)
-5.72

Provide measured cytotoxicity at 70.5 h value, entry: COc1ccc2c(c1)OCC(Cc1ccnc(N)n1)C2 (configuration not stated)
8.07

Provide measured cytotoxicity at 70.5 h value, entry: CCn1c(CC2CCN(S(=O)(=O)N3CCCCC3)CC2)nn(C)c1=O
-3.16
